# TEST_TARGET: T1, HLA-A*0201 on T2 cells (human)
# T1 construct: the class I molecule on T2 cells that the added peptide stabilises; also called HLA-A2; HLA-A2 molecules
# TEST_DESCRIPTION: T2 cell HLA-A*0201 stabilisation; 100 µM peptide overnight, Brefeldin A, BB7.2 mAb staining, flow cytometry; MFI minus no-peptide control
The threshold is 10 MFI. Values of MFI (3 hour) beneath it are tagged 1 (yes); values meeting or exceeding it are tagged 0 (no).

Query block: Is MFI (3 hour) of FLLPALIFAV (Free peptide added to T2 cells; also called peptide 804) [CD133-804] strictly below 10 MFI?
Result block: 0 (no)

Query block: Is MFI (3 hour) of LLFIILMPLV (Free peptide added to T2 cells; also called peptide 117) [CD133-117] strictly below 10 MFI?
Result block: 1 (yes)

Query block: Is MFI (3 hour) of SLNDPLCLV (Free peptide added to T2 cells; also called peptide 301) [CD133-301] strictly below 10 MFI?
Result block: 0 (no)

Query block: Is MFI (3 hour) of GLLERVTRI (Free peptide added to T2 cells; also called peptide 708) [CD133-708] strictly below 10 MFI?
Result block: 0 (no)

Query block: Is MFI (3 hour) of ILSAFSVYV (Free peptide added to T2 cells) [CD133-405] strictly below 10 MFI?
Result block: 0 (no)
